# SUBJECT OF TEST: UniProtKB P25440
# Sequence (P25440 344-453): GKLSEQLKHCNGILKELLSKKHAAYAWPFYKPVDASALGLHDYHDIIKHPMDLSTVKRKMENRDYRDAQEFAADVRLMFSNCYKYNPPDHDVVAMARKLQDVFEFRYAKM
# PROTOCOL TEXT: Bromodomain binding assay, BRD2(2)
# RUN PARAMETERS: dose response
pKd: −log10 of the molar value.
ATTRIBUTE MEASURED: pKd

# COMPOUND SMILES, ATTRIBUTE MEASURED, REPORTED VALUE
measured = [
    ("CCNC(=O)c1cc2c(-c3ccn(C)c(=O)c3Oc3c(C)cc(F)cc3C)cn(C)c(=O)c2[nH]1", "pKd", "> 8.00"),
]

====

# SUBJECT OF TEST: BRD4 BD1 (Homo sapiens (Human), UniProt O60885)
# PROTOCOL TEXT: Bromodomain binding assay (T7 phage display, qPCR), BRD4 BD1
# RUN PARAMETERS: read-out: BRD4 BD1 Kd
# Kd per record follows

# COMPOUND SMILES, Kd
rows = [
    ("Cn1cc(Oc2cccc(O)c2)c(-c2cn(C)c(=O)c3[nH]ccc23)cc1=O", "10 to 100 nM"),
    ("Cn1cc(-c2ccn(C)c(=O)c2Oc2cccc(O)c2)ccc1=O", "100 to 1000 nM"),
    ("COc1ccc(Oc2cn(C)c(=O)cc2-c2cn(C)c(=O)c3[nH]ccc23)cc1", "10 to 100 nM"),
    ("Cn1cc(-c2cc(O)ccc2OC2CCC2)c2cc[nH]c2c1=O", "≤ 10 nM"),
    ("CCCOc1ncsc1-c1cn(C)c(=O)c2[nH]ccc12", "100 to 1000 nM"),
]

These entries and their values trace back to patent US12384777B2.
